System: HeLa Kyoto;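 also: synchronized HeLa Kyoto cells (double thymidine block for G1/S, nocodazole release for mitosis), protein amounts in NP-40 versus SDS lysates quantified by mass spectrometry, three biological replicates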
experiment description: solubility change mitosis vs G1/S (difference of NP-40 vs SDS log2 ratios) (log2 ratio difference); higher = more soluble in mitosis
Response key: label 1 means solubility change mitosis (log2) >= 0.2; label 0 means solubility change mitosis (log2) < 0.2.

Take a look at these entries with their results.
MANRGPAYGLSREVQQKIEKQYDADLEQILIQWITTQCRKDVGRPQPGRENFQNWLKDGTVLCELINALYPEGQAPVKKIQASTMAFKQMEQISQFLQAAERYGINTTDIFQTVDLWEGKNMACVQRTLMNLGGLAVARDDGLFSGDPNWFPKKSKENPRNFSDNQLQEGKNVIGLQMGTNRGASQAGMTGYGMPRQIL [TAGLN2]    label 1
MAETEALSKLREDFRMQNKSVFILGASGETGRVLLKEILEQGLFSKVTLIGRRKLTFDEEAYKNVNQEVVDFEKLDDYASAFQGHDVGFCCLGTTRGKAGAEGFVRVDRDYVLKSAELAKAGGCKHFNLLSSKGADKSSNFLYLQVKGEVEAKVEELKFDRYSVFRPGVLLCDRQESRPGEWLVRKFFGSLPDSWASGHSVPVVTVVRAMLNNVVRPRDKQMELLENKAIHDLGKAHGSLKP [HTATIP2]    label 0
MAVATAAAVLAALGGALWLAARRFVGPRVQRLRRGGDPGLMHGKTVLITGANSGLGRATAAELLRLGARVIMGCRDRARAEEAAGQLRRELRQAAECGPEPGVSGVGELIVRELDLASLRSVRAFCQEMLQEEPRLDVLINNAGIFQCPYMKTEDGFEMQFGVNHLGHFLLTNLLLGLLKSSAPSRIVVVSSKLYKYGDINFDDLNSEQSYNKSFCYSRSKLANILFTRELARRLEGTNVTVNVLHPGIVRTNLGRHIHIPLLVKPLFNLVSWAFFKTPVEGAQTSIYLASSPEVEGVSGRYFGDCKEEELLPKAMDESVARKLWDISEVMVGLLK [RDH14]    label 0
MMPFGKISQQLCGVKKLPWSCDSRYFWGWLNAVFNKVDYDRIRDVGPDRAASEWLLRCGAMVRYHGQERWQKDYNHLPTGPLDKYKIQAIDATDSCIMSIGFDHMEGLEHVEKIRLCKCHYIEDDCLLRLSQLENLQKTILEMEIISCGNITDKGIIALRHLRNLKYLLLSDLPGVREKENLVQAFKTALPSLELKLQLK [ATP5S]    label 0
MAARGRRAEPQGREAPGPAGGGGGGSRWAESGSGTSPESGDEEVSGAGSSPVSGGVNLFANDGSFLELFKRKMEEEQRQRQEEPPPGPQRPDQSAAAAGPGDPKRKGGPGSTLSFVGKRRGGNKLALKTGIVAKKQKTEDEVLTSKGDAWAKYMAEVKKYKAHQCGDDDKTRPLVK [C19ORF43]    label 1
MAFLRSMWGVLSALGRSGAELCTGCGSRLRSPFSFVYLPRWFSSVLASCPKKPVSSYLRFSKEQLPIFKAQNPDAKTTELIRRIAQRWRELPDSKKKIYQDAYRAEWQVYKEEISRFKEQLTPSQIMSLEKEIMDKHLKRKAMTKKKELTLLGKPKRPRSAYNVYVAERFQEAKGDSPQEKLKTVKENWKNLSDSEKELYIQHAKEDETRYHNEMKSWEEQMIEVGRKDLLRRTIKKQRKYGAEEC [TFAM]    label 1
MASLQRKGLQARILTSEEEEKLKRDQTLVSDFKQQKLEQEAQKNWDLFYKRNSTNFFKDRHWTTREFEELRSCREFEDQKLTMLEAGCGVGNCLFPLLEEDPNIFAYACDFSPRAIEYVKQNPLYDTERCKVFQCDLTKDDLLDHVPPESVDVVMLIFVLSAVHPDKMHLVLQNIYKVLKPGKSVLFRDYGLYDHAMLRFKASSKLGENFYVRQDGTRSYFFTDDFLAQLFMDTGYEEVVNEYVFRETVNKKEGLCVPRVFLQSKFLKPPKNPSPVVLGLDPKS [METTL6]    label 0
MELSAEYLREKLQRDLEAEHVEVEDTTLNRCSCSFRVLVVSAKFEGKPLLQRHRLVNACLAEELPHIHAFEQKTLTPDQWARERQK [BOLA2]    label 0
MAATAAEAVASGSGEPREEAGALGPAWDESQLRSYSFPTRPIPRLSQSDPRAEELIENEEPVVLTDTNLVYPALKWDLEYLQENIGNGDFSVYSASTHKFLYYDEKKMANFQNFKPRSNREEMKFHEFVEKLQDIQQRGGEERLYLQQTLNDTVGRKIVMDFLGFNWNWINKQQGKRGWGQLTSNLLLIGMEGNVTPAHYDEQQNFFAQIKGYKRCILFPPDQFECLYPYPVHHPCDRQSQVDFDNPDYERFPNFQNVVGYETVVGPGDVLYIPMYWWHHIESLLNGGITITVNFWYKGAPTPKRIEYPLKAHQKVAIMRNIEKMLGEALGNPQEVGPLLNTMIKGRYN [HIF1AN]    label 0

Request: Is solubility change mitosis (log2) at least 0.2? Consider MAKRRAAEPVTFHVPWKRLLLCDFAEQPPPPPLWIRPPGVAHAGQLLGVPEQHRKRKIDAGTMAEPSASPSKRRDSGDNSAPSGQEREDHGLETGDPPLPPPPVLPGPGEELPGARLPGGGGDDGAGRAGPPRGDWGVASRQHNEEFWQYNTFQYWRNPLPPIDLADIEDLSEDTLTEATLQGRNEGAEVDMES [C9ORF40]
Response: label 0
